Values were extracted from patent US20230406922A1.

# Target desc: monkey CD19-his protein (monkey)
# Protocol details: ELISA, monkey CD19 coated
Measured OD450 at 0.01 nM, listed per entry.
# unit: OD450 | format: bare number

Binder	Result units	OD450 at 0.01 nM
FMC63-mIgG1 (antibody, V domains shown, Parent murine antibody; also called murine antibody FMC63) VH: EVKLQESGPGLVAPSQSLSVTCTVSGVSLPDYGVSWIRQPPRKGLEWLGVIWGSETTYYNSALKSRLTIIKDNSKSQVFLKMNSLQTDDTAIYYCAKHYYYGGSYAMDYWGQGTSVTVSS VL: DIQMTQTTSSLSASLGDRVTISCRASQDISKYLNWYQQKPDGTVKLLIYHTSRLHSGVPSRFSGSGSGTDYSLTISNLEQEDIATYFCQQGNTLPYTFGGGTKLEITR	OD450	0.05
FMC63.26-mIgG1 (antibody, V domains shown, Humanized FMC63; also called FMC63-L2H6) VH: EVTLKESGPVLVKPTETLTLTCTVSGFSLPDYGVSWIRQPPGKALEWLAVIWGSETTYYNSALKSRLTISKDTSKSQVVLTMTNMDPVDTATYYCAKHYYYGGSYAMDYWGQGTTVTVSS VL: DIQMTQSPSSLSASVGDRVTITCRASQDISKYLNWYQQKPGGAVKLLIYHTSRLHSGVPSRFSGSGSGTDYTLTISSLQPEDFATYYCQQGNTLPYTFGGGTKVEIKR	OD450	0.05
FMC63.25-mIgG1 (antibody, V domains shown, Humanized FMC63; also called FMC63-L2H5) VH: EVTLKESGPVLVKPTETLTLTCTVSGFSLSDYGVSWIRQPPGKALEWLAVIWGSETTYYNSALKSRLTISKDTSKSQVVLTMTNMDPVDTATYYCAKHYYYGGSYAMDYWGQGTTVTVSS VL: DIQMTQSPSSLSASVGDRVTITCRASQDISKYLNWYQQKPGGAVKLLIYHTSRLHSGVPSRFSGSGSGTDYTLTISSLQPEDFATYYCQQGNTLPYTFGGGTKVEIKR	OD450	0.09

Turning to the following binder.
Quick note, OD450 at 0.01 nM for FMC63.27-mIgG1 (antibody, V domains shown, Humanized FMC63; also called FMC63-L2H7) VH: EVTLKESGPVLVKPTETLTLTCTVSGVSLPDYGVSWIRQPPGKALEWLAVIWGSETTYYNSALKSRLTISKDNSKSQVVLTMTNMDPVDTATYYCAKHYYYGGSYAMDYWGQGTTVTVSS VL: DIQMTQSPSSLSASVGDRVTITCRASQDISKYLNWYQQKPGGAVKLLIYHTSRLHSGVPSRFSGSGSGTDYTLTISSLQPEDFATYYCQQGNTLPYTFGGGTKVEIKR landed at 0.05
